target: BCL6-NCOR2(SMRT) corepressor protein-protein interaction (Homo sapiens (Human), UniProt P41182); test: NanoBRET cell assay in transfected HEK293T cells; format: cell-based; conditions: further generated data (Table 2b); HEK293T cells, 6 hr; read-out: NanoBRET cell pIC50 (converted)
Entries whose IC50 is below 2000 nM take Satisfied; entries at or above 2000 nM take Not satisfied.

>  <compound>
CC(Nc1cc(=O)n(C)c2ccc(Nc3nc(NCc4cccnc4)ncc3Cl)cc12)c1ncccn1 (stereo not drawn) [Example 17f]

>  <label class>
Not satisfied

$$$$
>  <compound>
Cn1c(=O)cc(NC2(C#N)CC2)c2cc(Nc3ccnc(Cl)c3C#N)ccc21 [Example 24b]

>  <label class>
Not satisfied

$$$$
>  <compound>
CC(Nc1cc(=O)n(C)c2ccc(Nc3ccnc(Cl)c3C#N)cc12)c1ncc(Br)cn1 (stereo not drawn) [Example 10j]

>  <label class>
Satisfied

$$$$
>  <compound>
CNC(=O)c1cc(Nc2ccc3c(c2)c(NC(C)c2ncccn2)cc(=O)n3C)c(C#N)c(C)n1 (stereo not drawn) [Example 18b]

>  <label class>
Not satisfied

$$$$
>  <compound>
CC(Nc1cc(=O)n(C)c2ccc(Nc3nc(N4CCC(CC(=O)N(C)C)CC4)ncc3Cl)cc12)c1ncccn1 (stereo not drawn) [Example 17e]

>  <label class>
Not satisfied

$$$$
>  <compound>
Cn1c(=O)cc(NC2(c3ncccn3)CCOC2)c2cc(Nc3ccnc(Cl)c3C#N)ccc21 (stereo not drawn) [Example 19i]

>  <label class>
Not satisfied

$$$$
>  <compound>
Cn1c(=O)cc(NC(C)(C)c2ncc(C3CC3)cn2)c2cc(Nc3ccnc(Cl)c3C#N)ccc21 [Example 10a]

>  <label class>
Satisfied

$$$$
>  <compound>
CC(Nc1cc(=O)n(C)c2ccc(Nc3cc(C(=O)N(C)C)nc(Cl)c3C#N)cc12)c1ncccn1 (stereo not drawn) [Example 19b]

>  <label class>
Not satisfied

$$$$
>  <compound>
C[C@@H](Nc1cc(=O)n(C)c2ccc(Nc3cc(C(=O)N4CCC4)ncc3Cl)cc12)C1CC1 [Example 15d]

>  <label class>
Satisfied

$$$$
>  <compound>
CC(Nc1nc(=O)n(C)c2ccc(Nc3nc(N4C[C@@H](C)O[C@@H](C)C4)ncc3Cl)cc12)c1ncccn1 (stereo partly drawn) [Example 26e]

>  <label class>
Not satisfied

$$$$
>  <compound>
CC(Nc1cc(=O)n(C)c2ccc(Nc3ccnc(Cl)c3C#N)cc12)c1ncc(N2C[C@H](C)C[C@H](C)C2)cn1 (stereo partly drawn) [Example 10k]

>  <label class>
Satisfied

$$$$
>  <compound>
CC(Nc1cc(=O)n(C)c2ccc(Nc3nc(N4CCC(F)(F)C(CO)C4)ncc3Cl)cc12)c1ncccn1 (single isomer, unassigned) [Example 26d]

>  <label class>
Not satisfied

$$$$
>  <compound>
CC(Nc1cc(=O)n(C)c2ccc(Nc3ccnc(Cl)c3C#N)cc12)c1ncc(N2C[C@@H](C)O[C@@H](C)C2)cn1 (stereo partly drawn) [Example 10b]

>  <label class>
Satisfied

$$$$
>  <compound>
COC1CCC1Nc1cc(=O)n(C)c2ccc(Nc3ccnc(Cl)c3C#N)cc12 (racemic) [Example 22a]

>  <label class>
Not satisfied

$$$$

====

biological target: BCL6-NCOR2(SMRT) corepressor protein-protein interaction (Homo sapiens (Human)); assay: NanoBRET cell assay in transfected HEK293T cells; format: cell-based; conditions: further generated data (Table 2b); HEK293T cells, 6 hr; read-out: NanoBRET cell pIC50 (converted)
Below, each entry is listed with its recorded IC50.

>  <compound>
CC(Nc1cc(=O)n(C)c2ccc(Nc3cc(-n4cc(CCO)cn4)ncc3Cl)cc12)c1ncccn1 (stereo not shown) [Example 15i]

>  <test system>
BCL6-NCOR2(SMRT) corepressor protein-protein interaction (Homo sapiens (Human))

>  <IC50>
1.55 µM

$$$$
>  <compound>
CC(Nc1cc(=O)n(C)c2ccc(Nc3ccnc(Cl)c3C#N)cc12)c1ncc(N2CCOCC2)cn1 (stereo not shown) [Example 10x]

>  <test system>
BCL6-NCOR2(SMRT) corepressor protein-protein interaction (Homo sapiens (Human))

>  <IC50>
1.26 µM

$$$$
>  <compound>
CNC(=O)c1cc(Nc2ccc3c(c2)c(NC(C)c2ncccn2)cc(=O)n3C)c(C#N)cn1 (stereo not shown) [Example 19c]

>  <test system>
BCL6-NCOR2(SMRT) corepressor protein-protein interaction (Homo sapiens (Human))

>  <IC50>
29.5 µM

$$$$
>  <compound>
CC(Nc1cc(=O)n(C)c2ccc(Nc3ccnc(C#N)c3Cl)cc12)c1ncccn1 (stereo not shown) [Example 19h]

>  <test system>
BCL6-NCOR2(SMRT) corepressor protein-protein interaction (Homo sapiens (Human))

>  <IC50>
15.1 µM

$$$$

These data points were gathered from patent US11161839B2.
